Taken from patent US11697648B2.

Field: Kp. Provide a value for each of the molecules that follow.
test_method_notes: Colon and plasma mouse pharmacokinetics
Format: in vivo
test_parameters: mouse, colon tissue / plasma; male Balb/c mice, 10 mg/kg PO; ratio of the colon AUC to the plasma AUC
Experimental: Assay 5: Colon and Plasma Mouse Pharmacokinetics To 6 male Balb/c mice was administered 10 mg/kg of compound in 1% HPMC+0.1% Tween-80 by PO administration. […] Blood samples were collected into K2EDTA and stored on wet ice until processed to plasma by centrifugation (12000 rpm at 4° C.). […] All samples were analyzed using LC/MS/MS against analytical standards. […] A colon to plasma ratio was determined as the ratio of the colon AUC to the plasma AUC.

QUERY: Query Kp for "C=CC(=O)N1CCN(CCn2c(=O)ccc3cnc(Nc4ccc(N5CCN(C(C)=O)CC5)cc4)nc32)CC1"
RESULT: > 1000

QUERY: Query Kp for "C=CC(=O)N1CC(CCn2c(=O)ccc3cnc(Nc4ccc(N(CC)CC)cc4)nc32)C1"
RESULT: > 14

QUERY: Query Kp for "C=CC(=O)N1CC(CCn2c(=O)ccc3cnc(Nc4cccc(CN5CCN(C(=O)CSC)CC5)c4)nc32)C1"
RESULT: > 100

QUERY: Query Kp for "C=CC(=O)N1CC(CCn2c(=O)ccc3cnc(Nc4ccc(N5CCN(C)CC5)nc4)nc32)C1"
RESULT: > 100

====

Field: Kp. Provide a value for each of the molecules that follow.
test_method_notes: Colon and plasma mouse pharmacokinetics
Format: in vivo
test_parameters: mouse, colon tissue / plasma; male Balb/c mice, 10 mg/kg PO; ratio of the colon AUC to the plasma AUC

QUERY: Query Kp for "C=CC(=O)N1CC(CCn2c(=O)ccc3cnc(Nc4ccc(N5CCN(C(=O)CSC)CC5)cc4)nc32)C1"
RESULT: > 1000

QUERY: Query Kp for "C=CC(=O)N1CC(CCn2c(=O)ccc3cnc(Nc4ccc(N5CCN(C(=O)N(C)C)CC5)cc4)nc32)C1"
RESULT: > 100

QUERY: Query Kp for "C=CC(=O)N1CC(CCn2c(=O)ccc3cnc(Nc4ccc(N5CCN(S(=O)(=O)CCOC)CC5)cc4)nc32)C1"
RESULT: > 14

QUERY: Query Kp for "C=CC(=O)N1CC(CCn2c(=O)ccc3cnc(Nc4cnn(C)c4)nc32)C1"
RESULT: > 100

====

test_method_notes: Colon and plasma mouse pharmacokinetics
Format: in vivo
test_parameters: mouse, colon tissue / plasma; male Balb/c mice, 10 mg/kg PO; ratio of the colon AUC to the plasma AUC
attribute_measured: Kp

QUERY: Query Kp for "C=CC(=O)N1CCN(CCn2c(=O)ccc3cnc(Nc4ccc(N5CCN(C)CC5)cc4)nc32)CC1"
RESULT: > 1000

QUERY: Query Kp for "C=CC(=O)N1CC(CCn2c(=O)ccc3cnc(Nc4ccc(C5=CCN(C)CC5)cc4)nc32)C1"
RESULT: > 100

QUERY: Query Kp for "C=CC(=O)N1CCN(CCn2c(=O)ccc3cnc(Nc4ccc(N5CCN(C(=O)CCSC)CC5)cc4)nc32)CC1"
RESULT: > 1000

QUERY: Query Kp for "C=CC(=O)N1CC(CCn2c(=O)ccc3cnc(Nc4ccc(N5CCSCC5)cc4)nc32)C1"
RESULT: > 1000

QUERY: Query Kp for "C=CC(=O)N1CCN(CCn2c(=O)ccc3cnc(Nc4cnn(C)c4)nc32)[C@@H](CC)C1"
RESULT: > 50

QUERY: Query Kp for "C=CC(=O)N1CCN(CCn2c(=O)ccc3cnc(Nc4ccc(N5CCN(C(C)=O)CC5)cc4)nc32)[C@@H](C)C1"
RESULT: > 1000

QUERY: Query Kp for "C=CC(=O)N1CCN(CCn2c(=O)ccc3cnc(Nc4ccc(N5CCN(C(=O)COC)CC5)cc4)nc32)[C@@H](C)C1"
RESULT: > 100
